Tested on: anti-rabbit γ-globulin IgG2a antibody titer
Assay explanation: Rat model producing antibody (anti-rabbit γ-globulin antibody titer in serum, ELISA)
Format: in vivo, Sprague-Dawley strain rats
Protocol conditions: dose 0.3 mg/kg oral once every day for 14 days; 14th day after immunization
Assay readout: effect on anti-rabbit γ-globulin IgG2a antibody titer

IN: Given Cc1ccc(C)c2c(F)c(-c3ccc(-c4ccc(C(=O)O)cc4)[nH]3)oc12 [Compound C] , state its recorded effect on anti-rabbit γ-globulin IgG2a antibody titer.
OUT: inhibited significantly

IN: Another molecule to check: O=C(O)c1ccc(-c2ccc(-c3cc4c(C(F)(F)F)ccc(F)c4o3)[nH]2)cc1 [Compound B]
OUT: inhibited significantly

IN: Another molecule to check: CCc1ccc(C)c2cc(-c3ccc(-c4ccc(C(=O)O)cc4)[nH]3)oc12 [Compound D]
OUT: inhibited significantly

====

Assayed system: human RARγ (Homo sapiens, UniProt P13631)
Sequence (P13631 whole entry): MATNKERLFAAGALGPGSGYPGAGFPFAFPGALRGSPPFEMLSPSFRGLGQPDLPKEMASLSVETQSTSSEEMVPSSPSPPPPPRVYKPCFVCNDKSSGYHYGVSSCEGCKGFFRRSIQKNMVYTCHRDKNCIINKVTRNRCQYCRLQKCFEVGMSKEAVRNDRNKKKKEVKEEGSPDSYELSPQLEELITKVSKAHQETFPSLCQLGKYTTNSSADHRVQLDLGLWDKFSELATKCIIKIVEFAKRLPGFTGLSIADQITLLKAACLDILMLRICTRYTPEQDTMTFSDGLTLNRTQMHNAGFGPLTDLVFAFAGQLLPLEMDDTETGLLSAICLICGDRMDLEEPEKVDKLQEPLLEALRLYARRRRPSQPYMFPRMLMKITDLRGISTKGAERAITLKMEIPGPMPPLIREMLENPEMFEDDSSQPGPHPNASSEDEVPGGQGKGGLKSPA
Assay explanation: RAR binding assay (inhibition of 3H-all-trans-retinoic acid binding), RAR-γ
Parameters: expressed in transfected cells
Protocol conditions: nuclear extract of BHK cells expressing human RARγ, read-out: Receptor binding assay IC50 (nM) RAR-γ
Assay readout: IC50

IN: Given CCc1ccc(C)c2cc(-c3ccc(-c4ccc(C(=O)O)cc4)[nH]3)oc12 [drawing 13] , state its recorded IC50.
OUT: 270 nM

IN: Another molecule to check: O=C(O)c1ccc(-c2ccc(-c3cc4c(Cl)ccc(Cl)c4o3)[nH]2)cc1
OUT: > 500 nM

IN: Another molecule to check: Cc1ccc(C)c2oc(-c3ccc(-c4ccc(C(=O)O)cc4)[nH]3)cc12 [drawing 8]
OUT: > 500 nM

IN: Another molecule to check: CC1CCCN(C)c2ncc(-c3ccc(-c4ccc(C(=O)O)cc4)[nH]3)nc21 (stereo not shown) [drawing 16]
OUT: 130 nM

IN: Another molecule to check: Cc1ccc(C)c2c(F)c(-c3ccc(-c4ccc(C(=O)O)cc4)[nH]3)oc12 [drawing 12]
OUT: 225 nM

IN: Another molecule to check: O=C(O)c1ccc(-c2ccc(-c3cc4c(C(F)(F)F)ccc(F)c4o3)[nH]2)cc1 [drawing 11]
OUT: 195 nM

IN: Another molecule to check: O=C(O)c1ccc(-c2ccc(-c3cc4c(F)ccc(Cl)c4o3)[nH]2)cc1
OUT: > 500 nM

IN: Another molecule to check: CC1(C)CCC(C)(C)c2nc(-c3ccc(-c4ccc(C(=O)O)cc4)[nH]3)cnc21 [drawing 14]
OUT: 140 nM

IN: Another molecule to check: C[Si](C)(C)c1cc(C(=O)Nc2ccc(C(=O)O)cc2)cc([Si](C)(C)C)c1 [drawing 19]
OUT: > 500 nM

IN: Another molecule to check: COCc1cc2c(cc1-c1ccc(-c3ccc(C(=O)O)cc3)[nH]1)C(C)(C)CCC2(C)C [drawing 18]
OUT: 83 nM

====

Assayed system: UniProtKB P10826
Sequence (P10826 whole entry): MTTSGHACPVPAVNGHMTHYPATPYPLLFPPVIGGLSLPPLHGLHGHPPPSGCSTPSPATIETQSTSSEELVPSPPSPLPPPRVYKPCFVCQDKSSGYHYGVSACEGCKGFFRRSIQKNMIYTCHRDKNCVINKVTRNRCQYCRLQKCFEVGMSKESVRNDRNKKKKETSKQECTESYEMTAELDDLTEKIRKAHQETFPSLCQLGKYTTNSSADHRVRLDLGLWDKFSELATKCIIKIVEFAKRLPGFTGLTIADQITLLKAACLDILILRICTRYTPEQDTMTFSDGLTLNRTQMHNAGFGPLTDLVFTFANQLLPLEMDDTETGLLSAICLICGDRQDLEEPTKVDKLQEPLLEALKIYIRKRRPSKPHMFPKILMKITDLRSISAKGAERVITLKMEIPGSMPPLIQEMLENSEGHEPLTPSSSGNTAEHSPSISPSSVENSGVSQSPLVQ
Assay explanation: Transcription-promoting activity via RAR (PLAP reporter in COS-1 cells), RAR-β
Assay type: cell-based
Parameters: expressed in transfected cells; host or cells: COS-1 (African green monkey kidney), transient lipofection
Protocol conditions: Relative ED30: ED30 of all-trans-retinoic acid for each receptor = 1
From the text: A human RAR expression vector and a secretory alkali phosphatase (PLAP) gene vector (PLAP vector) having a response sequence integrated upstream for allowing RAR-bound PLAP to be expressed depending on ligand, were tentatively introduced into COS-1 (renal cell line derived from African green monkey). […]
Please go through the items and note down their Transcription promoting activity ED30* RAR-β.
Provide a numeric answer; units are not to be included.

IN: Given CC1CCCN(C)c2ncc(-c3ccc(-c4ccc(C(=O)O)cc4)[nH]3)nc21 (stereo not drawn) [drawing 28] , state its recorded Transcription promoting activity ED30* RAR-β.
OUT: 7.4

IN: Another compound to check: COCc1cc2c(cc1-c1ccc(-c3ccc(C(=O)O)cc3)[nH]1)C(C)(C)CCC2(C)C [drawing 30]
OUT: 29

IN: Another compound to check: CC1(C)CCC(C)(C)c2nc(-c3ccc(-c4ccc(C(=O)O)cc4)[nH]3)cnc21 [drawing 26]
OUT: 1.4

IN: Another compound to check: CCn1nc(-c2ccc(-c3ccc(C(=O)O)cc3)[nH]2)cc1C(C)C [drawing 29]
OUT: 14

IN: Another compound to check: CC1(C)CCCc2ncc(-c3ccc(-c4ccc(C(=O)O)cc4)[nH]3)nc21 [drawing 27]
OUT: 11

IN: Another compound to check: C[Si](C)(C)c1cc(C(=O)Nc2ccc(C(=O)O)cc2)cc([Si](C)(C)C)c1 [drawing 31]
OUT: 420
